The following sequences are shown together with reported furin cleavage Z-score values.
# target-desc: furin, P09958;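 note: purified furin at 1:10 enzyme:substrate in 50 mM HEPES pH 7.5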
# Sequence (P09958 whole entry): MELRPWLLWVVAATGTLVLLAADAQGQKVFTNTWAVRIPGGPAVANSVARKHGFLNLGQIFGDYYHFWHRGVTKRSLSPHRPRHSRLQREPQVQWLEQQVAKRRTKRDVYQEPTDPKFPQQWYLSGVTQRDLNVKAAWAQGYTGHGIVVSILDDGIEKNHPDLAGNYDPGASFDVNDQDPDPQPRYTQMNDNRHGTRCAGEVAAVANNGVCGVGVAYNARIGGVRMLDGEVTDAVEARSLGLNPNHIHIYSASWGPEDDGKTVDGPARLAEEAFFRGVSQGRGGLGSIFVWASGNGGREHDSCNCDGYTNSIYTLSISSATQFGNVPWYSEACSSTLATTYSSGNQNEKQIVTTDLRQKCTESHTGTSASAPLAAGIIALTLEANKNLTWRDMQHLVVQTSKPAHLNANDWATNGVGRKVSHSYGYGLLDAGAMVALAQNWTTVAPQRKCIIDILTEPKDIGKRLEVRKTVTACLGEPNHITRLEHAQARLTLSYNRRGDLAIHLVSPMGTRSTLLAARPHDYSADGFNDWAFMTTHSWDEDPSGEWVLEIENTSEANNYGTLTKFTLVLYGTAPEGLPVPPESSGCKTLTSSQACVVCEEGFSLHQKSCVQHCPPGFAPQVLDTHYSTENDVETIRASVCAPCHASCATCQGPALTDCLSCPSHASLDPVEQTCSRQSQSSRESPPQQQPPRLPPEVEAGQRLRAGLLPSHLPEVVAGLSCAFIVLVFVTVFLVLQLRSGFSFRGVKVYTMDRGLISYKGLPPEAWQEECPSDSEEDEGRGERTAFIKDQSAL
# experiment-notes: furin cleavage Z-score vs untreated control; higher = more cleavage, active = 3.5 or more, inactive = 1 or less, 8 variable residues between constant flanks
# test-conditions: 15 min
This is one part of the list. The hit rate among all sequences tested is not known here.
Just the number, please, no unit attached.

Below: 2 sequences and their reported furin cleavage Z-score.
{"monomer-sequence": "CAETAGARLVAGNASASA [HC829]", "furin cleavage Z-score": 1.12}
{"monomer-sequence": "CAPLAVMGSSAGNASASA [HC1462]", "furin cleavage Z-score": 1.18}

Next:
Quick one: furin cleavage Z-score of CAVACCSMSYAGNASASA [HC2003] ?
1.22

// provenance: the supplement of paper PMC3545927
